// data source = ChEMBL document CHEMBL2417389

EXPERIMENT_NOTES: Volume of distribution at steady state in Sprague-Dawley rat at 30 mg/kg, po and 1 mg/kg, iv
Type: ADME, organism-based
SETUP_CONDITIONS: in vivo, read-out: Vdss
QUANTITY_KIND: Vd
State the result as a value with its unit after it.

Consider the molecule Cc1ccccc1N1CC(C)(C)N([C@H]2CNC[C@@H](C(=O)N[C@H](CC(C)C)c3ccc(F)cn3)C2)CC1=O.O=C(O)/C=C/C(=O)O and give its recorded Vd.
11 L/kg

----------
EXPERIMENT_NOTES: Oral bioavailability in Sprague-Dawley rat at 30 mg/kg
Type: ADME, organism-based
SETUP_CONDITIONS: in vivo
QUANTITY_KIND: bioavailability (%)
Note: unit % is implicit; provide only the numeric part.

Consider the compound Cc1ccccc1N1CC(C)(C)N([C@H]2CNC[C@@H](C(=O)N[C@H](CC(C)C)c3ccc(F)cn3)C2)CC1=O.O=C(O)/C=C/C(=O)O and give its recorded bioavailability.
20
